Target: Angiotensin II receptor (Bos taurus, UniProt P25104)
Sequence (P25104 whole entry): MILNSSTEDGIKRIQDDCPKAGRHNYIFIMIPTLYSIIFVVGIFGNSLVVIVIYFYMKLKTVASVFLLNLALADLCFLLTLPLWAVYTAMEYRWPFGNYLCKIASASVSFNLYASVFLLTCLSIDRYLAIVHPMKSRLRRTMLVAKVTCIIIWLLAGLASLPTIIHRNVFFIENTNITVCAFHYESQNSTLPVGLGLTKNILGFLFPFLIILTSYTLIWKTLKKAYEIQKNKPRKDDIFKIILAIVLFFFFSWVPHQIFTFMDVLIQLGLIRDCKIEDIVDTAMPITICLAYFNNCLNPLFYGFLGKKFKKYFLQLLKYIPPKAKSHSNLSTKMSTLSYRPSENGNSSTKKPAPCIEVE
Test: Interaction with the angiotensin II receptor on membrane fractions of the adrenal gland cortex (cattle), 3H-angiotensin II binding
Settings: bovine adrenal gland cortex membranes, 3H-angiotensin II 3-5 nM, 60 min at room temperature
Each entry below carries its reported Ki.
Report as a plain number; the unit nM is understood.

Here are 3 compounds together with their reported answers.
{"compound": "CCCCc1nc(Cl)c(C=C(CC2CCCCC2)C(=O)O)n1Cc1ccc(S(=O)(=O)N2CCCCC2)cc1", "output-unit": "nM", "Ki": 40}
{"compound": "CCCCc1nc(Cl)c(C=C(CC2CCCC2)C(=O)O)n1Cc1ccc(S(=O)(=O)N2CCCCC2C(=O)O)cc1Cl (stereo not shown)", "output-unit": "nM", "Ki": 40}
{"compound": "CCCCc1nc(Cl)c(C=C(CC2CCCC2)C(=O)O)n1Cc1ccc(S(=O)(=O)N2CCCCC2)cc1", "output-unit": "nM", "Ki": 100}

[ask] Param item = CCCCc1nc(Cl)c(C=C(Cc2cccs2)C(=O)OC)n1Cc1ccc(S(=O)(=O)N2CCCCC2C(=O)OC(C)(C)C)cc1 (stereo not shown) ; retrieve measured Ki.
[reply] 120
